Hello, the source for this data is ChEMBL document CHEMBL2440094, in case you need it.

Biological target: Prothrombin (Homo sapiens)
Test: Inhibition of thrombin (unknown origin) using Boc-Val-Pro-Arg-AMC as substrate at 25 uM after 10 mins by continuous fluorimetric assay
Calls of active or inactive are those of the source. No cut-off for these calls is given here.
PARAMETER: inhibition

INSERT INTO assay_data (compound, parameter, reported) VALUES
  ('O=C(O)c1ccc(/C=C2\SC(=O)N(Cc3ccccc3)C2=O)cc1', 'inhibition', '12.2%'),
  ('C=CCN1C(=O)/C(=C/c2ccc(C(=O)N[C@@H](CCCNC(=N)N)C(=O)N[C@@H](CCCCN)C(=O)N[C@@H](CCCC)C(N)=O)cc2)SC1=S', 'inhibition', 'inactive'),
  ('CCCC[C@H](NC(=O)[C@H](CCCCN)NC(=O)[C@H](CCCNC(=N)N)NC(=O)c1ccc(/C=C2\SC(=O)N(CCC)C2=O)cc1)C(N)=O', 'inhibition', 'inactive'),
  ('CCCC[C@H](NC(=O)[C@H](CCCCN)NC(=O)[C@H](CCCNC(=N)N)NC(=O)c1ccc(/C=C2\SC(=S)N(CCCC)C2=O)cc1)C(N)=O', 'inhibition', '11.3%'),
  ('CCCC[C@H](NC(=O)[C@H](CCCCN)NC(=O)[C@H](CCCNC(=N)N)NC(=O)c1ccc(/C=C2\SC(=O)N(CCc3ccccc3)C2=O)cc1)C(N)=O', 'inhibition', '15.3%'),
  ('CCCC[C@H](NC(=O)[C@H](CCCCN)NC(=O)[C@H](CCCNC(=N)N)NC(=O)c1ccc(/C=C2\SC(=S)N(Cc3ccc(Cl)cc3)C2=O)cc1)C(N)=O', 'inhibition', '13.3%'),
  ('CCCC[C@H](NC(=O)[C@H](CCCCN)NC(=O)[C@H](CCCNC(=N)N)NC(=O)/C=C1\SC(=S)N(Cc2ccc(OC)cc2)C1=O)C(N)=O', 'inhibition', '24.7%'),
  ('CCCC[C@H](NC(=O)[C@H](CCCCN)NC(=O)[C@H](CCCNC(=N)N)NC(=O)c1ccc(/C=C2\SC(=S)N(C(C)C)C2=O)cc1)C(N)=O', 'inhibition', '12%');

Please give inhibition, item by item, for the list that follows.
1. CCCC[C@H](NC(=O)[C@H](CCCCN)NC(=O)[C@H](CCCNC(=N)N)NC(=O)c1ccc(/C=C2\SC(=S)N(Cc3ccc(F)cc3)C2=O)cc1)C(N)=O
2. CCCC[C@H](NC(=O)[C@H](CCCCN)NC(=O)[C@H](CCCNC(=N)N)NC(=O)c1ccc(/C=C2\SC(=S)N(CCO)C2=O)cc1)C(N)=O
3. CCCC[C@H](NC(=O)[C@H](CCCCN)NC(=O)[C@H](CCCNC(=N)N)NC(=O)c1ccc(/C=C2\SC(=O)N(C)C2=O)cc1)C(N)=O
4. CCCC[C@H](NC(=O)[C@H](CCCNC(=N)N)NC(=O)[C@H](CCCNC(=N)N)NC(=O)c1ccc(/C=C2\SC(=O)N(Cc3ccccc3)C2=O)cc1)C(N)=O
5. CCCCC(C(=O)OC)N1C(=O)/C(=C/c2ccc(C(=O)N[C@@H](CCCNC(=N)N)C(=O)N[C@@H](CCCCN)C(=O)N[C@@H](CCCC)C(N)=O)cc2)SC1=S (stereo not given in full)
6. CCCC[C@H](NC(=O)[C@H](CCCCN)NC(=O)[C@H](CCCNC(=N)N)NC(=O)c1ccc(/C=C2\SC(=S)N(c3ccc(OC)cc3)C2=O)cc1)C(N)=O
7. CCCC[C@H](NC(=O)[C@H](CCCCN)NC(=O)[C@H](CCCNC(=N)N)NC(=O)c1ccc(/C=C2\SC(=O)N(Cc3ccc(Cl)cc3)C2=O)cc1)C(N)=O

1. 9.6%
2. 12.9%
3. 9.2%
4. 13.7%
5. 9%
6. 8.5%
7. 18%

Please give inhibition, item by item, for the list that follows.
1. CCCC[C@H](NC(=O)[C@H](CCCCN)NC(=O)[C@H](CCCNC(=N)N)NC(=O)c1ccc(/C=C2\SC(=S)N(C)C2=O)cc1)C(N)=O
2. CCCC[C@H](NC(=O)[C@H](CCCN)NC(=O)[C@H](CCCNC(=N)N)NC(=O)c1ccc(/C=C2\SC(=O)N(Cc3ccccc3)C2=O)cc1)C(N)=O
3. N=C(N)NCCC[C@H](NC(=O)c1ccc(/C=C2\SC(=O)N(Cc3ccccc3)C2=O)cc1)C(N)=O
4. CCCC[C@H](NC(=O)c1ccc(/C=C2\SC(=O)N(Cc3ccccc3)C2=O)cc1)C(=O)N[C@@H](CCCCN)C(=O)N[C@@H](CCCNC(=N)N)C(N)=O

1: 14.8%; 2: 14.3%; 3: 13.2%; 4: 6.3%

Please give inhibition, item by item, for the list that follows.
1. CCCC[C@H](NC(=O)[C@H](CCCCN)NC(=O)[C@H](CCCNC(=N)N)NC(=O)c1ccc(/C=C2\SC(=S)N(c3ccc(C)cc3)C2=O)cc1)C(N)=O
2. CCCC[C@H](NC(=O)[C@H](CCCCN)NC(=O)[C@H](CCCNC(=N)N)NC(=O)c1ccc(/C=C2\SC(=O)NC2=O)cc1)C(N)=O
3. CCCC[C@H](NC(=O)[C@H](CCCCN)NC(=O)[C@H](CCCNC(=N)N)NC(=O)c1ccc(/C=C2\SC(=S)N(Cc3ccc(OC)cc3)C2=O)cc1)C(N)=O
4. CCCC[C@H](NC(=O)[C@H](CCCCN)NC(=O)[C@H](CCCNC(=N)N)NC(=O)c1ccc(/C=C2\SC(=S)NC2=O)cc1)C(N)=O

["10.2%", "14.5%", "15%", "13.9%"]

Please give inhibition, item by item, for the list that follows.
1. CCCC[C@H](NC(=O)[C@H](CCCCN)NC(=O)[C@H](CCCNC(=N)N)NC(=O)[C@H](Cc1ccccc1)N1C(=O)/C(=C/c2ccc(OC)c(OC)c2)SC1=S)C(N)=O
2. CCCC[C@H](NC(=O)[C@H](CCCCN)NC(=O)[C@H](CCCNC(=N)N)NC(=O)c1ccc(/C=C2\SC(=S)N(Cc3ccc(C)cc3)C2=O)cc1)C(N)=O

1. 18.9%
2. 10.9%
